Tested on: 926638-142-R-J1-PDC complex spheroid viability
Experiment: Anticancer human tumor 926638-142-R-J1-PDC patient-derived endometrial carcinoma cell line growth inhibition [POLQ]; active means viability on the fitted dose curve at most 10% of control; inactive means the rest
Settings: second compound 3.16 µM; first compound 10 µM
Hi there, use one of these labels in your reply, thanks! class 1 for active, class 0 for inactive

O=C(c1cc(Cc2n[nH]c(=O)c3ccccc23)ccc1F)N1CCN(C(=O)C2CC2)CC1 + COC1C(OC(N)=O)C(O)C(Oc2ccc3c(O)c(NC(=O)c4ccc(O)c(CC=C(C)C)c4)c(=O)oc3c2C)OC1(C)C: class 0

Here is the next item to consider.
Dear all, I need the recorded test outcome for CC1COCCN1c1cc(C2(S(C)(=N)=O)CC2)nc(-c2ccnc3[nH]ccc23)n1 (centres undefined) + Cc1cccc(N(C)C(=O)C2C(O)CCN2c2nc(C)cc(C(F)(F)F)c2C#N)c1 , thank you.
class 0

====

Tested on: 926638-142-R-J1-PDC complex spheroid viability
Assay: Anticancer human tumor 926638-142-R-J1-PDC cell line growth inhibition [POLQ];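 further: spheroids exposed to drugs for one week before readout; percent viability relative to DMSO vehicle control wells set as 100%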
Settings: second compound 10 µM; first compound 0.1 µM; active compounds read low
Documented viability, T/C across a set of compounds
Expressed in %, but write only the number.

CCc1c2c(nc3ccc(O)cc13)-c1cc3c(c(=O)n1C2)COC(=O)[C@]3(O)CC + COC1C(OC(N)=O)C(O)C(Oc2ccc3c(O)c(NC(=O)c4ccc(O)c(CC=C(C)C)c4)c(=O)oc3c2C)OC1(C)C: 21.5
COc1cc2cc(C(=O)CCC(=O)O)sc2cc1OC + Cc1cccc(N(C)C(=O)C2C(O)CCN2c2nc(C)cc(C(F)(F)F)c2C#N)c1: 95.7

Please examine the following record next.
Query (compound): CCCS(=O)(=O)Nc1ccc(F)c(C(=O)c2c[nH]c3ncc(-c4ccc(Cl)cc4)cc23)c1F + Cc1cccc(N(C)C(=O)C2C(O)CCN2c2nc(C)cc(C(F)(F)F)c2C#N)c1 ; field requested: viability, T/C
94.1

====

Tested on: 926638-142-R-J1-PDC complex spheroid viability
Test: Anticancer human tumor 926638-142-R-J1-PDC cell line growth inhibition [POLQ];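 further: spheroids exposed to drugs for one week before readout; percent viability relative to DMSO vehicle control wells set as 100%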
Conditions: second compound 0.1 µM; first compound 3.16 µM; active compounds read low
outcomeMeasure: viability, T/C (%)
Expressed in %, but write only the number.

In the examples that follow, each entry is paired with its recorded viability, T/C.
COc1cccc2c1C(=O)c1c(O)c3c(c(O)c1C2=O)CC(O)(C(=O)CO)CC3OC1CC(N)C(O)C(C)O1 (stereo not given) + COC1C(OC(N)=O)C(O)C(Oc2ccc3c(O)c(NC(=O)c4ccc(O)c(CC=C(C)C)c4)c(=O)oc3c2C)OC1(C)C: 0.18
COc1cc(C2c3cc4c(cc3C(OC3OC5COC(C)OC5C(O)C3O)C3COC(=O)C23)OCO4)cc(OC)c1O (stereo not given) + Nc1ccc(C#CCN(C(=O)Cc2ncc(C(F)(F)F)cc2C(F)(F)F)c2ccc(F)cc2)nn1: 80
C=CC(=O)N1CCN(c2nc(=O)n(-c3c(C)ccnc3C(C)C)c3nc(-c4c(O)cccc4F)c(F)cc23)C(C)C1 (stereo not given) + Nc1ccc(C#CCN(C(=O)Cc2ncc(C(F)(F)F)cc2C(F)(F)F)c2ccc(F)cc2)nn1: 87.8
Nc1ccn(C2OC(CO)C(O)C2(F)F)c(=O)n1 (stereo not given) + Nc1ccc(C#CCN(C(=O)Cc2ncc(C(F)(F)F)cc2C(F)(F)F)c2ccc(F)cc2)nn1: 49.9

Please examine the following record next.
Query (compound): C=CC(=O)N1CCN(c2nc(=O)n(-c3c(C)ccnc3C(C)C)c3nc(-c4c(O)cccc4F)c(F)cc23)C(C)C1 (stereo not given) + COC1C(OC(N)=O)C(O)C(Oc2ccc3c(O)c(NC(=O)c4ccc(O)c(CC=C(C)C)c4)c(=O)oc3c2C)OC1(C)C ; field requested: viability, T/C
80.1
